- target.of.assay: CDK1/cyclinB1 (Homo sapiens, UniProt P06493)
- Construct: made in house; host or cells: High Five insect cells (Trichoplusia ni), baculovirus coinfection
- Sequence (P06493 whole entry): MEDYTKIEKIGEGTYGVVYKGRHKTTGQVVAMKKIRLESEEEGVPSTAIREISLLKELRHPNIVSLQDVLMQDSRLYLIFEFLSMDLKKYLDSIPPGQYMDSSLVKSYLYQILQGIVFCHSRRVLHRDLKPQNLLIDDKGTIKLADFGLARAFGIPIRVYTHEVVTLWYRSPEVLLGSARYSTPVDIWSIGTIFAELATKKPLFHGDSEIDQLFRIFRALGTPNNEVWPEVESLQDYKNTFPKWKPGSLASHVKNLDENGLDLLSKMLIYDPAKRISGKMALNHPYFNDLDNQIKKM
- Sequence (P14635 whole entry partner): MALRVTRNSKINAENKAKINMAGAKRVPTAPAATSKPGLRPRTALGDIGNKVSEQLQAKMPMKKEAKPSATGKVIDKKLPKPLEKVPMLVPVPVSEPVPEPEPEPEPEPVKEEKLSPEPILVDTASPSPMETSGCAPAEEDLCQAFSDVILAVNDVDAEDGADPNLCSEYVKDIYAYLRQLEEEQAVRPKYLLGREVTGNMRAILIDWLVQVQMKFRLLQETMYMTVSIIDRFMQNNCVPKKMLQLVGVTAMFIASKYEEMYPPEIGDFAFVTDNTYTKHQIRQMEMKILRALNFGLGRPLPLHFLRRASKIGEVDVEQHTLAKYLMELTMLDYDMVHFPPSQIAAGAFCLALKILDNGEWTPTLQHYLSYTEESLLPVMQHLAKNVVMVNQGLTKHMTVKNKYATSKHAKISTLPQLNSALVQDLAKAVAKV
- measurement.notes: Cyclin B1-CDK1 kinase inhibition test
- Type: biochemical
- condition.info: CDK1 tests (Example 13); recombinant cyclin B1/CDK1, substrate histone H1; read-out: CDK1/cyclinB1 IC50 value
- Procedure: CDK4) were cloned by standard methods using RT-PCR, and cloned into a transfer vector (cyclin in pAcG2T made by Pharmingen, CDKs in p2Bac made by Invitrogen) for the baculovirus system. […] The plate was sealed up with Sealing Tape and after 1 h measured in a scintillation measuring apparatus (Micro Beta made by Wallac).
pIC50: −log10 of the molar value.
outcome.measure: pIC50

Solved entries:
OCCCCCNc1nc(Nc2ccc(Cl)c(Cl)c2)ncc1C(F)(F)F = > 7.00
CC(=O)NCCNc1nc(Nc2cccc(NS(=O)(=O)c3ccccc3)c2)ncc1C(F)(F)F = > 7.00
N#Cc1ccc(Nc2ncc([N+](=O)[O-])c(N3CCc4[nH]cnc4C3)n2)cc1 = > 7.00
COCC(=O)NCCCNc1nc(Nc2ccc3cnn(C)c3c2)ncc1C(F)(F)F = > 7.00
CC(=O)NCCNc1nc(Nc2cccc(S(=O)(=O)N(C)C)c2)ncc1C(F)(F)F = > 7.00
O=[N+]([O-])c1ccccc1CNc1nc(Nc2ccc(Cl)c(Cl)c2)ncc1C(F)(F)F = > 7.00
O=C(Nc1ccccc1)c1ccc(Nc2ncc([N+](=O)[O-])c(N3CCc4[nH]cnc4C3)n2)cc1 = > 7.00
COCC(=O)NCCCNc1nc(Nc2ccc(C(N)=O)cc2)ncc1C(F)(F)F = > 7.00

Sample CC(CC(=O)O)Nc1nc(Nc2ccc(Cl)c(Cl)c2)ncc1C(F)(F)F (stereo not drawn) ; pIC50 observed: > 7.00

----------
Please respond with reported melting point for every item in the list.

Solved entries (count: 2):
CC(=O)NCCNc1nc(Nc2ccc(Cl)c(Cl)c2)ncc1[N+](=O)[O-] [Example 1] = 200 to 201 °C
CC(=O)NCCNc1nc(Nc2ccc(C(=O)O)cc2)ncc1[N+](=O)[O-].Cl = 171 to 173 °C

Kindly consider the entry below.
melting point reported for this compound CC(=O)NCCNc1nc(Nc2cccc(CN3CCCCC3)c2)ncc1C(F)(F)F [Example 11] : 93 to 94 °C
